System: NCI/ADR-RES ovarian
Test: NCI-60 one-dose screen, 48 h (100 = growth as untreated, 0 = no growth, -100 = all killed)
Details: 10 µM
The panel holds about 83,000 compounds, 20% with a hit somewhere; the sample as a whole holds those more often.
Assay readout: growth (%)
Answers are plain numbers, in %.

Record excerpt, results attached:
1. CC(=O)C1=C(C)NC(SCC(=O)Nc2ccc(S(=O)(=O)Nc3cc(C)on3)cc2)=NC1c1ccccc1 (stereo not drawn) :: 103
2. CC(C)NC(=O)c1cc(-c2ccc(NC(=O)Nc3ccc(N4CCN(C)CC4)c(C(F)(F)F)c3)cc2)nc2cccnc12 :: -61.7
3. O=C1Nc2cc(Cl)ccc2/C1=C/c1cccc(OCc2ccc(Br)cc2F)c1 :: -35.1
4. CCCCCCCCCCCCCCCCCCCC(=O)NCCc1c[nH]c2ccc(OC(=O)NOCCOCCOCCOCCOCCOCCOCCOCCOCCOCCOCCOCCOCCOCCOCCOCCOCCOCCOCCOCCOCCOCCOC)cc12 :: 89.3

Report growth for each item below.
1. COc1ccc([C@H]2C(C(=O)c3ccc(Cl)cc3)C3(N[C@@H]2c2ccccc2)C(=O)Nc2ccc(Br)cc23)cc1 (stereo partly drawn)
2. Cc1ccc(-c2cc(C(=O)N=Nc3c(O)[nH]c4ccccc34)c3ccccc3n2)cc1
3. Cc1ccc(-c2cc(-c3cc4ccccc4nc3Cl)[nH]c(=O)n2)cc1
4. O=C(CSc1nnc(-c2c[nH]c3ccccc23)n1-c1ccccc1)Nc1ccc(C(=O)/C=C/c2ccc(Br)cc2)cc1

Response:
[-27.2, -16.9, -38.8, 94.9]

----------
Tested on: HOP-62 NSCLC
Assay: NCI-60 one-dose screen, 48 h
Conditions: 10 µM
This is part of a sample that, as a whole, favours compounds with a hit. Of some 83,000 tested, about 20% had one in any assay. Active and inactive are the calls of the source. Rule for the calls: active = growth percent below 10; inactive = the rest.
Hi there, use one of these labels in your reply, thanks! TRUE = active, FALSE = inactive

Here are 8 molecules together with their reported answers.
1. COc1ccc(CN2[C@H](C(=O)NCCCCCCC(=O)NO)Cc3c([nH]c4ccccc34)[C@H]2C2CC2)cc1 :: FALSE
2. COc1ccc(C=CC(=O)c2ccc(-n3c(C)nc4c(cnn4-c4ccccc4)c3=O)cc2)cc1 :: FALSE
3. CCC(C)S(=O)(=O)c1oc(-c2ccc(C)cc2)nc1S(=O)(=O)c1ccccc1 (centres undefined) :: FALSE
4. N#Cc1c(NC(=O)c2ccc(C(F)(F)F)cc2)sc2c1CCC(=O)C2 :: TRUE
5. OCCNc1oc(-c2ccccc2)nc1[P+](c1ccccc1)(c1ccccc1)c1ccccc1 :: FALSE
6. COc1cc2oc(-c3cccc(C(=O)Nc4ccc(Cl)cc4)c3)cc(=O)c2c(OCCNC(=O)CNC(=O)OC(C)(C)C)c1OC :: FALSE
7. CN(C)CCNC(=O)OCCCCOc1cc(O)c2c(=O)cc(-c3ccccc3)oc2c1 :: TRUE
8. COc1cccc(/C=C2\N=C(C)N(CCc3ccc(S(N)(=O)=O)cc3)C2=O)c1 :: FALSE

Let's switch to this molecule now.
Prompt: What was the test verdict on O=S(=O)(Nc1ncccn1)c1ccc(-n2c(-c3ccc(Br)cc3)nc(-c3ccccc3)c2-c2ccccc2)cc1 ?
Response: FALSE
